The origin of these recorded values is paper PMC8196545.

target: HIV-1 NL4-3 Env on infected cells (HIV-1 group M subtype B, NL4-3 (pNL4-3 …, strain))
recorded-endpoint: binding result

[[record]]
binder = "c10833 (antibody, V domains shown) V domain 1: EVRLDQSGAEMRKPGTSVRLSCTVSGHTTNDFFIHWVKQDPQRGPLWMGLINVEDENVIYAEEFQGRISIVADSSKTTVFLDLSHLTFEDTALYLCTTHTLEKETGDYVAAFDSWGQGTFLSVSS V domain 2: QSVLTQPPSVSAVPGQKVIISCSGRTSNIGTNFVSWYQQFPGAAPKLLIYDTFHRPSGISDRFSASKSDTSATLAITALQPGDEAEYYCGSWDSGLNPAVFVFGSGTRVFVL"
observed_result = "binds"

[[record]]
binder = "c8549 (antibody, V domains shown) VH: QVTLKESGPTLLRPADTLTLTCNFSGFSLTTDGVALGWMRQSPGKAPEWLAFLFYDDDKQYNPHLKSRLIISKASSTNQLVLAMTNMGPADAGTYFCARLNVLVHDVPPRNYGLDVWGRGITITVSS VL: DIVLTQSPVSLSVTPGQSASMSCKSSETLLHEDGKSYLYWYLQKPGQSPQLLIYEASKRFSGVSDRFTASGTGTHFTLQIDRVEVDDVGVYYCMENLKALTFGGGTRMEIK"
observed_result = "binds"

[[record]]
binder = "c32045 (antibody, V domains shown) VH: AVQLLESGGGLVKPGGSLRLSCAASGFTFGSYAMHWVRQAPGKGLEWVSSINISSTTYMYYSDSLKGRFTISRDNAKKTLYLQMASLRPEDTAVYYCVREATYCGSQCYSRYFDFWGSGTLVAVSS VL: DIQMTQSPPSVSAGVGDRVTITCRASQTISGFLSWYQQKPGKAPKLLIYAASTLHSGVPSRFSGSGSGTDFTLTISSLQPEDFATYYCQQSYSAPRTFGQGTKLEIK"
observed_result = "binds"

